Provenance of the data: patent US8993556B2

Overview of reported Vd across a group of molecules:
# ASSAY PROCEDURE: in vivo
# CONDITION INFO: Mouse Balb Nu/Nu, 10 mg/kg IV bolus, single, read-out: Vdss (mL/kg) Volume of distribution at steady state
Kindly format the answer as number then unit.

CN(C)c1ccc(Oc2cc(O)cc(O)c2-c2cc(C(=O)NC3CCN(C4CCC5(CC4)OCCCCO5)CC3)no2)cc1 ... 5980 mL/kg

Consider the molecule shown here: "CN(C)c1ccc(Oc2cc(O)cc(O)c2-c2cc(C(=O)NC3CCN(C4CCC5(CC4)OCC(C)(C)CO5)CC3)no2)cc1" What is its recorded Vd?
6000 mL/kg

Consider the molecule shown here: "CN(C)c1ccc(Oc2cc(O)cc(O)c2-c2cc(C(=O)NC3CCN(C4CCC5(CC4)OCCO5)CC3)on2)cc1" What is its recorded Vd?
9120 mL/kg
